This collection of values is drawn from patent US9521846B2.

I'd appreciate it if you could supply Hemolysis at 100 μg/ml values for the items below.
- Test system: human red blood cells (hRBC)
- experiment.description: Hemolysis
- Type: cell-based
- condition.set: 100
Non-standard residues stand in square brackets, D forms with d. Residues, ends and D or L forms follow the SMILES beside them. dDab = NCC[C@@H](N)C(=O)O; Orn = NCCC[C@H](N)C(=O)O; Dab = NCC[C@H](N)C(=O)O
# value in %; strip the unit string

Reported Hemolysis at 100 μg/ml for CC[C@H](C)[C@@H]1NC(=O)[C@H](Cc2c[nH]c3ccccc23)NC(=O)[C@H](CCC(=O)O)NC(=O)[C@@H]2CCCN2C(=O)[C@H]2CCCN2C(=O)[C@H](CCN)NC(=O)[C@H](C)NC(=O)[C@H](CCN)NC(=O)[C@H](CCN)NC(=O)[C@H](Cc2c[nH]c3ccccc23)NC(=O)[C@H](CCN)NC(=O)[C@@H](CCN)NC(=O)[C@H](CCCN)NC(=O)[C@H](CCN)NC1=O [Example 47] (cyclo(EWI[Dab][Orn][dDab][Dab]W[Dab][Dab]A[Dab][dP]P)) : what is it?
0.2

Reported Hemolysis at 100 μg/ml for CC[C@H](C)[C@@H]1NC(=O)[C@H](Cc2c[nH]c3ccccc23)NC(=O)[C@H]([C@@H](C)O)NC(=O)[C@@H]2CCCN2C(=O)[C@H]2CCCN2C(=O)[C@H](CCN)NC(=O)[C@H](C)NC(=O)[C@H](CCN)NC(=O)[C@H](CCCCN)NC(=O)[C@H](Cc2c[nH]c3ccccc23)NC(=O)[C@H](CCN)NC(=O)[C@H](CCN)NC(=O)[C@H](CCCCN)NC(=O)[C@H](CCN)NC1=O [Example 27] (cyclo(TWI[Dab]K[Dab][Dab]WK[Dab]A[Dab][dP]P)) : what is it?
0.6

----------
- System: Pseudomonas aeruginosa P1021903
- Type: cell-based
- condition.set: P1021903
Non-standard residues stand in square brackets, D forms with d. Residues, ends and D or L forms follow the SMILES beside them. Cha = N[C@@H](CC1CCCCC1)C(=O)O; Dab = NCC[C@H](N)C(=O)O
assay.endpoint: MIC P. aeruginosa P1021903 (µg/mL)
# value in µg/mL; strip the unit string

Reported MIC P. aeruginosa P1021903 for CC[C@H](C)[C@@H]1NC(=O)[C@H](Cc2c[nH]c3ccccc23)NC(=O)[C@H]([C@@H](C)O)NC(=O)[C@@H]2CCCN2C(=O)[C@H]2CCCN2C(=O)[C@H](CCN)NC(=O)[C@H](CC2CCCCC2)NC(=O)[C@H](CCN)NC(=O)[C@H](CCN)NC(=O)[C@H](Cc2c[nH]c3ccccc23)NC(=O)[C@H](CCN)NC(=O)[C@H](CCN)NC(=O)[C@H](CCCCN)NC(=O)[C@H](CCN)NC1=O [Example 12] (cyclo(TWI[Dab]K[Dab][Dab]W[Dab][Dab][Cha][Dab][dP]P)) : what is it?
2.00

Reported MIC P. aeruginosa P1021903 for CC[C@H](C)[C@@H]1NC(=O)[C@H](Cc2c[nH]c3ccccc23)NC(=O)[C@H]([C@@H](C)O)NC(=O)[C@@H]2CCCN2C(=O)[C@H]2CCCN2C(=O)[C@H](CCN)NC(=O)[C@H]([C@@H](C)CC)NC(=O)[C@H](CCN)NC(=O)[C@H](CCN)NC(=O)[C@H](Cc2c[nH]c3ccccc23)NC(=O)[C@H](CCN)NC(=O)[C@H](CCN)NC(=O)[C@H](CCCCN)NC(=O)[C@H](CCN)NC1=O [Example 8] (cyclo(TWI[Dab]K[Dab][Dab]W[Dab][Dab]I[Dab][dP]P)) : what is it?
0.18

Reported MIC P. aeruginosa P1021903 for CC[C@H](C)[C@@H]1NC(=O)[C@H](Cc2c[nH]c3ccccc23)NC(=O)[C@H]([C@@H](C)O)NC(=O)[C@@H]2CCCN2C(=O)[C@H]2CCCN2C(=O)[C@H](CCN)NC(=O)[C@H](C)NC(=O)[C@H](CCN)NC(=O)[C@H](CCN)NC(=O)[C@H](Cc2c[nH]c3ccccc23)NC(=O)[C@H](CCN)NC(=O)[C@H](CCN)NC(=O)[C@H](CCCCN)NC(=O)[C@H](CCN)NC1=O [Example 1] (cyclo(TWI[Dab]K[Dab][Dab]W[Dab][Dab]A[Dab][dP]P)) : what is it?
0.07

Reported MIC P. aeruginosa P1021903 for CC[C@H](C)[C@@H]1NC(=O)[C@H](Cc2c[nH]c3ccccc23)NC(=O)[C@H]([C@@H](C)O)NC(=O)[C@@H]2CCCN2C(=O)[C@H]2CCCN2C(=O)[C@H](CCN)NC(=O)[C@H](C(C)C)NC(=O)[C@H](CCN)NC(=O)[C@H](CCN)NC(=O)[C@H](Cc2c[nH]c3ccccc23)NC(=O)[C@H](CCN)NC(=O)[C@H](CCN)NC(=O)[C@H](CCCCN)NC(=O)[C@H](CCC(N)=O)NC1=O [Example 30] (cyclo(TWIQK[Dab][Dab]W[Dab][Dab]V[Dab][dP]P)) : what is it?
0.30

Reported MIC P. aeruginosa P1021903 for CC[C@H](C)[C@@H]1NC(=O)[C@H](Cc2c[nH]c3ccccc23)NC(=O)[C@H]([C@@H](C)O)NC(=O)[C@@H]2CCCN2C(=O)[C@H]2CCCN2C(=O)[C@H](CCN)NC(=O)[C@H]([C@@H](C)O)NC(=O)[C@H](CCN)NC(=O)[C@H](CCN)NC(=O)[C@H](Cc2c[nH]c3ccccc23)NC(=O)[C@H](CCN)NC(=O)[C@H](CCN)NC(=O)[C@H](CCCCN)NC(=O)[C@H](CCN)NC1=O [Example 16] (cyclo(TWI[Dab]K[Dab][Dab]W[Dab][Dab]T[Dab][dP]P)) : what is it?
0.05
